The reported numbers originate from PubChem BioAssay (EPA / NIEHS).

read-out: TIMP metallopeptidase inhibitor 1 (TIMP1), TIMP1 (gene 7076); assay: BSK_MyoF_TIMP1: BioMAP Diversity Plus: MyoF Assay for TIMP metallopeptidase inhibitor 1 (TIMP1) Biomarker Activity (AID 2284269); settings: primary human lung fibroblasts
The source made the active and inactive calls. The calls were made as follows: active = hit-call score of the fitted dose curve at least 0.9, where 1 is the maximum; inactive = score below 0.9.
Field 'call' accepts active, inactive

Request: Hi, sorry to bother you, what did the test record for CCCCCCCCCCCCCC[N+](C)(C)C ?
Result: active

Request: Hi, sorry to bother you, what did the test record for OCCC(F)(F)C(F)(F)C(F)(F)C(F)(F)C(F)(F)C(F)(F)F ?
Result: inactive

Request: Hi, sorry to bother you, what did the test record for C=C(C)C(=O)OCCC(F)(F)C(F)(F)C(F)(F)C(F)(F)C(F)(F)C(F)(F)F ?
Result: inactive

Request: Hi, sorry to bother you, what did the test record for NCC(F)(F)C(F)(F)C(F)(F)C(F)(F)C(F)(F)C(F)(F)C(F)(F)F ?
Result: inactive

Please turn your attention to the following entry.
Request: Hi, sorry to bother you, what did the test record for FC(F)(I)C(F)(F)C(F)(F)C(F)(F)C(F)(F)C(F)(F)I ?
Result: active

----------
test: ATG_AP_2_CIS: Attagene CIS-FACTORIAL HepG2 Assay for human Activator Protein 2 (AP-2) (AID 2282932); conditions: HepG2 AP-2 cis-reporter, Attagene transcription factor profiling; actives raise or lower the signal
Activity calls are given as the source filed them. How the source made its calls: active means hit-call score of the fitted dose curve at least 0.9, where 1 is the maximum; inactive means score below 0.9.
Field 'call' accepts active, inactive

Some solved entries appear below for comparison.
Request: Hi, sorry to bother you, what did the test record for O=[N+]([O-])c1ccc(O)cc1 ?
Result: inactive

Request: Hi, sorry to bother you, what did the test record for NCC(F)(F)C(F)(F)C(F)(F)C(F)(F)C(F)(F)C(F)(F)C(F)(F)F ?
Result: inactive

Request: Hi, sorry to bother you, what did the test record for CCCCCCCCCCCCc1ccccc1S(=O)(=O)O ?
Result: inactive

Request: Hi, sorry to bother you, what did the test record for c1ccc2c(c1)Cc1ccccc1-2 ?
Result: inactive

Request: Hi, sorry to bother you, what did the test record for CCc1ccc(CCOc2ccc(CC3SC(=O)NC3=O)cc2)nc1 (centres undefined) ?
Result: inactive

New cases:
Request: Hi, sorry to bother you, what did the test record for FC(F)(I)C(F)(F)C(F)(F)C(F)(F)C(F)(F)C(F)(F)I ?
Result: inactive

Request: Hi, sorry to bother you, what did the test record for COC(=O)CCCCC(=O)OC ?
Result: inactive

Request: Hi, sorry to bother you, what did the test record for N#C[C@@H]1CC(F)(F)CN1C(=O)CNC1CC2CCC(C1)N2c1ncccn1 (some centres undefined) ?
Result: inactive

Request: Hi, sorry to bother you, what did the test record for OC1CCCCC1 ?
Result: inactive

----------
assay: ATG_Ets_CIS: Attagene CIS-FACTORIAL HepG2 Assay for human Erythroblast Transformation Specific (ETS) (AID 2282941); settings: HepG2 ETS cis-reporter transcription, actives raise or lower the signal
Calls of active or inactive are those of the source. How the source made its calls: active means hit-call score of the fitted dose curve at least 0.9, where 1 is the maximum; inactive means score below 0.9.
Field 'call' accepts class 1 = active, class 0 = inactive

Request: Hi, sorry to bother you, what did the test record for CCCCCCC(=O)O ?
Result: class 0

New cases:
Request: Hi, sorry to bother you, what did the test record for CCc1nn(C2CCCCC2)c2cc(C3(C#N)CCC(C(=O)O)CC3)ccc12 (stereo not drawn) ?
Result: class 0

Request: Hi, sorry to bother you, what did the test record for CC(=O)NC1(c2cccc(F)c2)CCN(CC[C@@]2(c3ccc(Cl)c(Cl)c3)CN(c3ccccc3)C(=O)CO2)CC1 ?
Result: class 1

Request: Hi, sorry to bother you, what did the test record for CCCCCCCCCCCCCCCS(=O)(=O)Oc1ccccc1 ?
Result: class 0

Request: Hi, sorry to bother you, what did the test record for CC[C@H](C)[C@@H](C(=O)O)n1sc2ccccc2c1=O ?
Result: class 0

Request: Hi, sorry to bother you, what did the test record for CCCCCCCCCCCCN1CCCC1=O ?
Result: class 0

Request: Hi, sorry to bother you, what did the test record for CN1CCC[C@H]1c1cccnc1 ?
Result: class 0

Request: Hi, sorry to bother you, what did the test record for OCCC(F)(F)C(F)(F)C(F)(F)C(F)(F)C(F)(F)C(F)(F)F ?
Result: class 0

Request: Hi, sorry to bother you, what did the test record for COC(=O)CCCCC(=O)OC ?
Result: class 0

Request: Hi, sorry to bother you, what did the test record for CCCCOCCO ?
Result: class 0

----------
test: ATG_CRE_CIS: Attagene CIS-FACTORIAL HepG2 Assay for human cAMP Responsive Element (CRE) binding protein 3 (AID 2282926); conditions: HepG2 CRE cis-reporter, Attagene multiplexed mRNA; actives raise or lower the signal
Active and inactive are the calls of the source. The calls were made as follows: active = hit-call score of the fitted dose curve at least 0.9, where 1 is the maximum; inactive = score below 0.9.
Property Label: outcome

Request: Entry O=c1c(-c2ccc(O)cc2)coc2cc(O)ccc12 has what outcome?
Result: inactive

Request: Entry CCCCC(CC)COC(=O)CCCCC(=O)OCC(CC)CCCC (stereo not drawn) has what outcome?
Result: inactive

Request: Entry CCc1nn(C2CCCCC2)c2cc(C3(C#N)CCC(C(=O)O)CC3)ccc12 (stereo not drawn) has what outcome?
Result: inactive

----------
read-out: Interleukin-8 (IL8), CXCL8 (gene 3576); assay: BSK_SAg_IL8: BioMAP Diversity Plus: SAg Assay for Interleukin-8 (IL8) Biomarker Activity (AID 2283094); details: primary human HUVEC with PBMC; actives raise or lower the signal
Active and inactive are the calls of the source. The calls were made as follows: active = hit-call score of the fitted dose curve at least 0.9, where 1 is the maximum; inactive = score below 0.9.
Property Label: AC50

Request: Entry COc1ccc([N+](=O)[O-])cc1N has what AC50?
Result: inactive

Request: Entry CCc1nn(C2CCCCC2)c2cc(C3(C#N)CCC(C(=O)O)CC3)ccc12 (configuration not stated) has what AC50?
Result: 2.73 µM (active)

Request: Entry NC(=O)N1C(=O)C(C(=O)c2cc(Cl)cs2)c2cc(F)c(Cl)cc21 (configuration not stated) has what AC50?
Result: inactive

Request: Entry CN(C)C=O has what AC50?
Result: inactive

New cases:
Request: Entry CC(C)(C)c1cc(C(C)(C)C)c(O)c(C(C)(C)C)c1 has what AC50?
Result: inactive

Request: Entry CN1CCN(c2ccccc2/C=C2\SCCN(c3ccc(Cl)c(Cl)c3)C2=O)CC1 has what AC50?
Result: 20 µM (active)

Request: Entry CCCCCCCCCCCCCC[N+](C)(C)C has what AC50?
Result: 3.2 µM (active)

Request: Entry CCCCCCCCOC(=O)CCCCCCCCC(=O)OCCCCCCCC has what AC50?
Result: inactive

Request: Entry OC1CCC(C2CCCCC2)CC1 (configuration not stated) has what AC50?
Result: inactive

Request: Entry COCC(C)OCC(C)O (configuration not stated) has what AC50?
Result: inactive

Request: Entry CC(O)CO (configuration not stated) has what AC50?
Result: inactive

----------
read-out: Monokine induced gamma interferon (MIG), CXCL9 (gene 4283); assay: BSK_hDFCGF_MIG: BioMAP Diversity Plus: hDFCGF Assay for Monokine induced gamma interferon (MIG) Biomarker Activity (AID 2283063); details: primary human foreskin fibroblasts; actives raise or lower the signal
Activity calls are given as the source filed them. How the source made its calls: active means hit-call score of the fitted dose curve at least 0.9, where 1 is the maximum; inactive means score below 0.9.
Property Label: AC50

See these solved cases before continuing.
Request: Entry c1ccc2c(c1)ccc1ccccc12 has what AC50?
Result: inactive

Request: Entry NC(=O)N(O)[C@@H]1C=C[C@H](Oc2cccc(Oc3ccc(F)cc3)c2)C1 has what AC50?
Result: inactive

Request: Entry CCCCC(CC)COC(=O)CCCCC(=O)OCc1ccccc1 (configuration not stated) has what AC50?
Result: inactive

Request: Entry O=[N+]([O-])c1ccc(O)cc1 has what AC50?
Result: inactive

Request: Entry CC(C)(C)CC(C)(C)c1ccc(O)c(-n2nc3ccccc3n2)c1 has what AC50?
Result: 7.74 µM (active)

New cases:
Request: Entry COCC(C)O (configuration not stated) has what AC50?
Result: inactive

Request: Entry CC(=O)NC1(c2cccc(F)c2)CCN(CC[C@@]2(c3ccc(Cl)c(Cl)c3)CN(c3ccccc3)C(=O)CO2)CC1 has what AC50?
Result: 31.8 µM (active)

Request: Entry Nc1cccc2c(N)cccc12 has what AC50?
Result: 16.3 µM (active)

Request: Entry COC(=O)CCCCC(=O)OC has what AC50?
Result: inactive

Request: Entry CC(C)CCCCCCOC(=O)CCCCC(=O)OCCCCCCC(C)C has what AC50?
Result: inactive

Request: Entry CCc1ccc(CCOc2ccc(CC3SC(=O)NC3=O)cc2)nc1 (configuration not stated) has what AC50?
Result: inactive

Request: Entry O=C(O)Cc1cc(I)c(Oc2cc(I)c(O)c(I)c2)c(I)c1 has what AC50?
Result: 10.7 µM (active)

----------
assay: CCTE_Padilla_ZF_144hpf_TERATOSCORE: (Legacy) CCTE's 144 Hour Post-fertilization zebrafish Assay Teratoscore, Padilla Lab (AID 2283679);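 as to AC50: zebrafish embryos with chorions exposed by immersion from 6-8 hpf to 5 dpf with daily renewal; teratogenicity score from eye scoring of death hatching and malformations at 144 hpf; higher score means more developmental defects relative to DMSO baseline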
Calls of active or inactive are those of the source. How the source made its calls: active means hit-call score of the fitted dose curve at least 0.9, where 1 is the maximum; inactive means score below 0.9.
Property Label: AC50

See these solved cases before continuing.
Request: Entry CCCCCCCCCCCCN1CCCC1=O has what AC50?
Result: 8.11 µM (active)

Request: Entry NC(=O)N(O)[C@@H]1C=C[C@H](Oc2cccc(Oc3ccc(F)cc3)c2)C1 has what AC50?
Result: 14.9 µM (active)

Request: Entry OCCC(F)(F)C(F)(F)C(F)(F)C(F)(F)C(F)(F)C(F)(F)C(F)(F)C(F)(F)F has what AC50?
Result: inactive

Request: Entry CC(C)(C)c1cc(C(C)(C)C)c(O)c(C(C)(C)C)c1 has what AC50?
Result: 7.36 µM (active)

Request: Entry CN1CCN(c2ccccc2/C=C2\SCCN(c3ccc(Cl)c(Cl)c3)C2=O)CC1 has what AC50?
Result: 5.38 µM (active)

Continue with the molecule presented below.
Request: Entry CCC(C)(C)C1CCC(O)CC1 (stereo unspecified) has what AC50?
Result: inactive
